Values compiled from BigSolDB 2.1.

Conditions: in ethyl acetate, 323.15 K
ATTRIBUTE MEASURED: solubility (mole fraction)
When you answer, write just the number.

What does the data say about its solubility (mole fraction)? Entry: COc1ccc2nc(S(=O)Cc3ncc(C)c(OC)c3C)[nH]c2c1 (stereo unspecified) 0.00405

###

Details: in water, 293.15 K
ATTRIBUTE MEASURED: solubility (mole fraction)
Just the number, please, no unit after it.

Recorded solubility (mole fraction) for COc1ccc2nc(S(=O)Cc3ncc(C)c(OC)c3C)[nH]c2c1 (stereo unspecified) , please? 7.64e-05

###

Conditions: in acetonitrile, 318.15 K
ATTRIBUTE MEASURED: solubility (mole fraction)
Answer with a number only.

Field request: solubility (mole fraction) | item: COc1ccc2nc(S(=O)Cc3ncc(C)c(OC)c3C)[nH]c2c1 (stereo unspecified) 0.00607

###

Conditions: in ethyl acetate, 313.15 K
ATTRIBUTE MEASURED: solubility (mole fraction)

Form field: reported solubility (mole fraction) of COc1ccc2nc(S(=O)Cc3ncc(C)c(OC)c3C)[nH]c2c1 (stereo unspecified) 0.00293

###

Settings: in acetonitrile, 328.15 K
ATTRIBUTE MEASURED: solubility (mole fraction)

May I ask what solubility (mole fraction) has been recorded for COc1ccc2nc(S(=O)Cc3ncc(C)c(OC)c3C)[nH]c2c1 (stereo unspecified) ? 0.00843

###

Settings: in water, 303.15 K
ATTRIBUTE MEASURED: solubility (mole fraction)
Kindly provide the number alone.

Any idea what solubility (mole fraction) was measured for COc1ccc2nc(S(=O)Cc3ncc(C)c(OC)c3C)[nH]c2c1 (stereo unspecified) ? 0.000115

###

Details: in acetone, 333.15 K
ATTRIBUTE MEASURED: solubility (mole fraction)
Please reply with the value in numeric form only.

What measured solubility (mole fraction) goes with COc1ccc2nc(S(=O)Cc3ncc(C)c(OC)c3C)[nH]c2c1 (stereo unspecified) ? 0.00982

###

Conditions: in n-butanol, 283.15 K
ATTRIBUTE MEASURED: solubility (mole fraction)
Hey, just send me the number, nothing else.

Please give the measured solubility (mole fraction) for this compound: COc1ccc2nc(S(=O)Cc3ncc(C)c(OC)c3C)[nH]c2c1 (stereo unspecified) 0.00153

###

Conditions: in acetone, 308.15 K
ATTRIBUTE MEASURED: solubility (mole fraction)
Could you respond with only the numeric value?

Need solubility (mole fraction) of COc1ccc2nc(S(=O)Cc3ncc(C)c(OC)c3C)[nH]c2c1 (stereo unspecified) , thanks. 0.00464

###

Conditions: in acetone, 328.15 K
ATTRIBUTE MEASURED: solubility (mole fraction)
Give a plain numeric answer without units written out.

Could you share which solubility (mole fraction) value was measured for COc1ccc2nc(S(=O)Cc3ncc(C)c(OC)c3C)[nH]c2c1 (stereo unspecified) ? 0.0085

###

Settings: in acetone, 278.15 K
ATTRIBUTE MEASURED: solubility (mole fraction)

Given the entry COc1ccc2nc(S(=O)Cc3ncc(C)c(OC)c3C)[nH]c2c1 (stereo unspecified) , report its measured solubility (mole fraction). 0.00146

###

Conditions: in ethanol, 313.15 K
ATTRIBUTE MEASURED: solubility (mole fraction)
Note: the reply should be a number with no unit written.

Which solubility (mole fraction) reading was recorded for the molecule COc1ccc2nc(S(=O)Cc3ncc(C)c(OC)c3C)[nH]c2c1 (stereo unspecified) ? 0.00605
